protocol_summary: qHTS assay to identify small molecule antagonists of the thyroid receptor (TR) signaling pathway (AID 743065); note: nearly all actives have a fitted effect of over 55% in size
condition_context: GH3.TRE-Luc, T3-stimulated luciferase inhibition, 23.5 h; series mostly up to 70.3 µM
Records with an inconclusive call do not appear. Active and inactive are the calls of the source. Calls come from the whole dose curve; as a rule, active = well fitted inhibition curve with a large enough effect in the repeat runs; inconclusive = weak or mixed curves; inactive = no such curve, though single readings can be large or run the other way.

chemical_structure: O=C(O)Cc1csc(-c2ccc(Cl)cc2)n1
outcome: inactive
//
chemical_structure: NC(=O)N[C@@H](CCC(=O)O)C(=O)O
outcome: inactive
//
chemical_structure: CCOc1ccc2nc(S(N)(=O)=O)sc2c1
outcome: inactive

====

tested_system: Aromatase (Homo sapiens) (UniProt P11511)
Sequence (P11511 whole entry, looked up): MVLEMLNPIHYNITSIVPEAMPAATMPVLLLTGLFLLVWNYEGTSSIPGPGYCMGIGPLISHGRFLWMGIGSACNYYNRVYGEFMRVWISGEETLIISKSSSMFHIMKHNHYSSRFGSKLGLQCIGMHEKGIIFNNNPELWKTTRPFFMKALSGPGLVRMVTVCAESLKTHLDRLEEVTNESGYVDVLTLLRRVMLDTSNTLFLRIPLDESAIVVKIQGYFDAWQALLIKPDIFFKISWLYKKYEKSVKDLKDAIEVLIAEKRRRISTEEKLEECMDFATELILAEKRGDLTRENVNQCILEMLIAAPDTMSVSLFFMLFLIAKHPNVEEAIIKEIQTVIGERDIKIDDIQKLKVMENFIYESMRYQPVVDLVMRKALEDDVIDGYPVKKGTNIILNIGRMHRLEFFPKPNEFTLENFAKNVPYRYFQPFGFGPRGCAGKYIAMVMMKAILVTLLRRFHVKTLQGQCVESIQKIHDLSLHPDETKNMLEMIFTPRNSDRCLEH
protocol_summary: qHTS assay to identify aromatase inhibitors (AID 743083); note: nearly all actives have a fitted effect of over 55% in size
condition_context: MCF-7 aro ERE, testosterone-driven ERE luciferase, 24 h; series mostly up to 70.3 µM
Records with an inconclusive call do not appear. Activity calls are given as the source filed them. Calls come from the whole dose curve; as a rule, active = well fitted inhibition curve with a large enough effect in the repeat runs; inconclusive = weak or mixed curves; inactive = no such curve, though single readings can be large or run the other way.
measurement_name: outcome

Examples with their reported outcome follow.
molecule: CO/N=C(\C(=O)N[C@@H]1C(=O)N2C(C(=O)O)=C(CSc3nc(=O)c(O)nn3C)CS[C@H]12)c1csc(N)n1
tested_system: Aromatase (Homo sapiens) (UniProt P11511)
outcome: inactive
//
molecule: COc1cccc(OC)c1C(=O)N[C@@H]1C(=O)N2[C@@H]1SC(C)(C)[C@@H]2C(=O)O
tested_system: Aromatase (Homo sapiens) (UniProt P11511)
outcome: inactive
//
molecule: CN(C)C(=O)Oc1ccc[n+](C)c1
tested_system: Aromatase (Homo sapiens) (UniProt P11511)
outcome: inactive
//
molecule: Cc1ccc(C(=O)Nc2ccc(S(=O)(=O)O)c3cc(S(=O)(=O)O)cc(S(=O)(=O)O)c23)cc1NC(=O)c1cccc(NC(=O)Nc2cccc(C(=O)Nc3cc(C(=O)Nc4ccc(S(=O)(=O)O)c5cc(S(=O)(=O)O)cc(S(=O)(=O)O)c45)ccc3C)c2)c1
tested_system: Aromatase (Homo sapiens) (UniProt P11511)
outcome: inactive
//
molecule: COc1cc(C)nc(-n2nc(C)cc2OC)n1
tested_system: Aromatase (Homo sapiens) (UniProt P11511)
outcome: inactive

Need outcome for each of these molecules.
1. O=C(CO)[C@@H](O)[C@H](O)[C@@H](O)CO
2. CCOC(=O)COC(=O)c1ccccc1C(=O)OCC
3. CCCc1ncc(C[n+]2ccccc2C)c(N)n1

1: inactive; 2: inactive; 3: inactive

Need outcome for each of these molecules.
1. O=Cc1cccc(Br)c1
2. O=C(CO)[C@@H](O)[C@H](O)[C@H](O)CO
3. CN(C)[C@@H]1C(=O)C(C(=O)NCN2CCCC2)=C(O)[C@@]2(O)C(=O)C3=C(O)c4c(O)cccc4[C@@](C)(O)C3C[C@@H]12 (stereo partly specified)
4. CCOCC(C)O (stereo unspecified)
5. CC/C=C\CCOC(C)OCC (stereo unspecified)

["inactive", "inactive", "inactive", "inactive", "inactive"]

====

protocol_summary: qHTS assay for small molecule activators of the heat shock response signaling pathway (AID 743210);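 note: HeLa cells with beta-lactamase reporter driven by heat shock elements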
condition_context: HeLa HSE-bla reporter, beta-lactamase ratio, 5 h; series mostly up to 62.6 µM
Results filed as inconclusive are left out. Calls of active or inactive are those of the source. The call rests on the fitted dose curve; in most records, active means well fitted activation curve with a large enough effect in the signal ratio in the repeat runs, with a control signal flat (not every such curve was filed as active); inconclusive means weak or mixed curves; inactive means flat fitted curve, though single readings scatter; the % refers to the signal ratio.
measurement_name: activation

Examples with their reported activation follow.
molecule: CCOC(=O)C(=O)CCCCCCl
activation: inactive

molecule: NO
activation: inactive

molecule: Cc1ccc(C(=O)Nc2ccc(S(=O)(=O)O)c3cc(S(=O)(=O)O)cc(S(=O)(=O)O)c23)cc1NC(=O)c1cccc(NC(=O)Nc2cccc(C(=O)Nc3cc(C(=O)Nc4ccc(S(=O)(=O)O)c5cc(S(=O)(=O)O)cc(S(=O)(=O)O)c45)ccc3C)c2)c1
activation: inactive

molecule: O=C(O)c1cn(C2CC2)c2cc(N3CCNCC3)c(F)cc2c1=O
activation: inactive

molecule: CCCCN1C=CN(C)C1
activation: inactive

Need activation for each of these molecules.
1. CC(CC=O)CC(C)(C)C (stereo unspecified)
2. OCCCCCO
3. O=C(CO)[C@@H](O)[C@H](O)[C@@H](O)CO
4. CCCCOCCOC(=O)COc1cc(Cl)c(Cl)cc1Cl
5. Nc1ccncc1N
6. CCCCCCCCCCCCSC
7. O=C(O)Cc1csc(-c2ccc(Cl)cc2)n1

inactive
inactive
inactive
inactive
inactive
inactive
inactive

Need activation for each of these molecules.
1. CCOC(=O)c1cnc2c(cnn2CC)c1NN=C(C)C
2. Cc1ccccc1N=C(N)N=C(N)N
3. CO[C@@]1(NC(=O)C(C(=O)O)c2ccc(O)cc2)C(=O)N2C(C(=O)O)=C(CSc3nnnn3C)CO[C@@H]21 (stereo partly specified)
4. C=C(C)C(=O)OCC1CCCO1 (stereo unspecified)
5. COc1cc(-c2ccc(=O)[nH]n2)ccc1OC(F)F

1. inactive
2. inactive
3. inactive
4. inactive
5. inactive
